system: biotinyl-Val-oxazolone; assay: self-aminoacylation, catalytic enhancement (BVO) (fold over background); higher = more active; k-Seq, kA / k0A0; sequences stand for … in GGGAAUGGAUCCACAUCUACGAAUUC…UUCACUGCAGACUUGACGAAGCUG
Fewer inactive variants are shown than the library holds.
measured-endpoint: self-aminoacylation
Numbers only.

Examples from the recorded data:
AUUACACUGGUCAUCGACUGA [Fam2.1 aminoacylation ribozyme variant] :: 0.965
AUUCCCCUAGGUCAUCGUGUG [Fam2.2 aminoacylation ribozyme variant] :: 4.25
AUUCGCCUAGCUCAUCGGGUG [Fam2.2 aminoacylation ribozyme variant] :: 2.59
CUUGCCCUGGUCAUCGAGUGA [Fam2.1 aminoacylation ribozyme variant] :: 7.34
AAGUUUGCUAAUAGGCUCAAG [Fam3.1 aminoacylation ribozyme variant] :: 0.774
AAGUUCGCUAAUACUCGCAAG [Fam3.1 aminoacylation ribozyme variant] :: 1.12
AUUCAUCCAGGUCAUCGGGUG [Fam2.2 aminoacylation ribozyme variant] :: 4.75
AUUAAACUGGUCAUCGAGUGA [Fam2.1 aminoacylation ribozyme variant] :: 2.42
AUUAUCCGGGUCAUCGAGUGA [Fam2.1 aminoacylation ribozyme variant] :: 4.04
CCACACUCCAAGCAGUCGGUC [Fam1B.1 aminoacylation ribozyme variant] :: 1.49

Please look at the items below and tell me self-aminoacylation for each one, in order.
1. AAGUUUGCUAAUGGUCGGAAG [Fam3.1 aminoacylation ribozyme variant]
2. CUACUUCAAACAAUCCGUCUU [Fam1A.1 aminoacylation ribozyme variant]
3. AUUACCCUGGGCAUCGAGUUA [Fam2.1 aminoacylation ribozyme variant]
4. AUUACCAUGGUCAUCUAGUGA [Fam2.1 aminoacylation ribozyme variant]
5. CUACUUCAAACGAUCGCUCUG [Fam1A.1 aminoacylation ribozyme variant]
6. AUUCACCGAGGUGAUCGGGUG [Fam2.2 aminoacylation ribozyme variant]
7. AAUUUUGAUAAUAGUCGCAAG [Fam3.1 aminoacylation ribozyme variant]
8. AUUCACCUAGGUUGUCGGGUG [Fam2.2 aminoacylation ribozyme variant]

[0.91, 0.862, 1.11, 5.38, 0.838, 4.15, 1.39, 3.2]

Please look at the items below and tell me self-aminoacylation for each one, in order.
1. AUUGACCUAGUUCAUCGGGUG [Fam2.2 aminoacylation ribozyme variant]
2. AUUCACCUAGCUCAACGGGUG [Fam2.2 aminoacylation ribozyme variant]
3. GCACACUUCAAGCCAUCGGUC [Fam1B.1 aminoacylation ribozyme variant]
4. CUACUUAAAACUAUCGGUCUG [Fam1A.1 aminoacylation ribozyme variant]
5. AUUACCCGGUUCAUCGAGUGA [Fam2.1 aminoacylation ribozyme variant]
6. AAGCUUGCUAAUAGUCACAAG [Fam3.1 aminoacylation ribozyme variant]
7. AUUAACCUGGUCACCGAGUGA [Fam2.1 aminoacylation ribozyme variant]

1: 2.59; 2: 1.36; 3: 2.57; 4: 1.06; 5: 4.41; 6: 1.35; 7: 3.69

Please look at the items below and tell me self-aminoacylation for each one, in order.
1. AUUUACCUAGGUCAUAGGGUG [Fam2.2 aminoacylation ribozyme variant]
2. AUUCCCCUAGGUCAUCGGUUG [Fam2.2 aminoacylation ribozyme variant]
3. AUACACCUAGGUCAUAGGGUG [Fam2.2 aminoacylation ribozyme variant]
4. AAGUUAUCUAAUAGUCGCAAG [Fam3.1 aminoacylation ribozyme variant]
5. CUUCUUCAAACAAUCGGUCUC [Fam1A.1 aminoacylation ribozyme variant]
6. GCAAACUUCAAGCAAUCGGUC [Fam1B.1 aminoacylation ribozyme variant]
7. AUUACCCUGGUCUUCGAAUGA [Fam2.1 aminoacylation ribozyme variant]

1: 1.48; 2: 3.38; 3: 1.43; 4: 1.18; 5: 0.874; 6: 2.17; 7: 0.728

Please look at the items below and tell me self-aminoacylation for each one, in order.
1. AUUACCCUUGUCAACGAGUGA [Fam2.1 aminoacylation ribozyme variant]
2. CCACACUUCAAGCGACCGGUC [Fam1B.1 aminoacylation ribozyme variant]
3. AUUCACCUAGGUCAUUGGGUC [Fam2.2 aminoacylation ribozyme variant]

1: 3.44; 2: 1.52; 3: 0.867

Values from the supplement of paper PMC9233669
